assay: sensitizers of A549 cells to miR-34 induction, primary screen, imaging, A549 dox-inducible miR-34, nuclei and caspase counts (AID 1347080); conditions: A549 miR-34 inducible, Hoechst nuclei count, 48 h; measured here: total cells with miR-34 induction; stronger effect = lower value
Bridge positions count the residues as written; N and C are the ends. Square brackets hold non-standard residues; d marks the D form. Peptide text beside a SMILES is read from it. * marks the point of attachment. Octanoyl(6-Me) = CCC(C)CCCCC(=O)*; Dab = NCC[CH](N)C(=O)O

molecule	cell count
Cc1[nH]c(=O)c(C#N)cc1-c1ccc2nccn2c1	9250
CN1[C@@H]2CC[C@H]1CC(OC(=O)[C@H](CO)c1ccccc1)C2 (stereo not given in full)	8370
CCCCCCCCCCCCCCCCO	8310
CCC(=O)c1ccc2c(c1)N(CCCN(C)C)c1ccccc1S2	1900
NC(=O)NS(=O)(=O)c1ccc(N)cc1	8990
CCCCNc1ccc(C(=O)OCCOCCOCCOCCOCCOCCOCCOCCOCCOC)cc1	8120
CCCCCCCCCCCCCCCC(=O)OC/C=C(C)/C=C/C=C(C)/C=C/C1=C(C)CCCC1(C)C	9920
CC(=O)NCCc1c[nH]c2ccc(O)cc12	10700
NS(=O)(=O)c1ccc(C(=O)O)cc1	8630
CC(C=CC=C(C)C=CC1=C(C)CCCC1(C)C)=CC=CC=C(C)C=CC=C(C)C=CC1=C(C)CCCC1(C)C	7760
C=C(C)[C@@H]1CC[C@]2(CO)CC[C@]3(C)[C@H](CC[C@@H]4[C@@]5(C)CC[C@H](O)C(C)(C)[C@@H]5CC[C@]43C)[C@@H]12	8530
OCC(O)C(O)C(O)CO (stereo not given)	9100
COc1cc2cc3c4cc(OC)c(OC)cc4cc[n+]3c(C)c2cc1OC	8980
CC(C)(C)C(=O)OCOC(=O)[C@@H]1N2C(=O)[C@@H](NC(=O)[C@H](N)c3ccccc3)[C@H]2SC1(C)C	9310
CCC(C)CCCCC(=O)NC(CCN)C(=O)NC(C(=O)NC(CCN)C(=O)NC1CCNC(=O)C(C(C)O)NC(=O)C(CCN)NC(=O)C(CCN)NC(=O)C(CC(C)C)NC(=O)C(Cc2ccccc2)NC(=O)C(CCN)NC1=O)C(C)O (stereo not given) ({Octanoyl(6-Me)}-[Dab]T[Dab][Dab][Dab]FL[Dab][Dab]T; lactam 4-C; configuration not given here)	11700
O=C(O)c1cccc(-c2noc(-c3ccccc3F)n2)c1	10200
NCCCCC(=O)O	10300
Nc1ncn([C@H]2C[C@H](O)[C@@H](CO)O2)c(=O)n1	8200
CCN(CC)CCCN(c1ccccc1)C1Cc2ccccc2C1	8050
CCCCCCCCCCCCCCCCNc1ccc(C(=O)O)cc1	4330

----------
target: 6-phosphogluconate dehydrogenase, decarboxylating (Homo sapiens) (UniProt P52209); experiment: 6PGD enzyme inhibitors, primary screen, biochemical, human, recombinant enzyme, NADPH absorbance (AID 1159550); settings: recombinant 6PGD, NADPH absorbance 341 nm; at 10 µM; stronger effect = higher value
Sequence (P52209 whole entry, looked up): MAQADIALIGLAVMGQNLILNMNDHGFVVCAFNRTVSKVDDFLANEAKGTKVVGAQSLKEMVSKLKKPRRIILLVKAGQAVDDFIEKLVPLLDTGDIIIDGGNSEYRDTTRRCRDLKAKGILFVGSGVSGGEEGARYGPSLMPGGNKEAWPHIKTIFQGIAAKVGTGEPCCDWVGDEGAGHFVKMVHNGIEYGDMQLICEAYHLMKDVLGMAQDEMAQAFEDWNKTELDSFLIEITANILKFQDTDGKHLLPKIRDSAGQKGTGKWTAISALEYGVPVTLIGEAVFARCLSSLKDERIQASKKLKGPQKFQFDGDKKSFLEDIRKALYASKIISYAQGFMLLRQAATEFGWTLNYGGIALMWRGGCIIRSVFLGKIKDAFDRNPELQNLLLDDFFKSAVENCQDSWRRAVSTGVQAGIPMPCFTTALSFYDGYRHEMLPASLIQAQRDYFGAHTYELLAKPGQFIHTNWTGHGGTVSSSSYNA
Activity calls are given as the source filed them.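 The calls were made as follows: active = at least 20% inhibition of 6-phosphogluconate dehydrogenase activity; inactive = the rest.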

smiles-record	inhibition
Cc1cc(O)cc(=O)o1	18.1% (inactive)
C[N+](C)(C)CCOP(=O)([O-])OP(=O)(O)OC[C@H]1O[C@@H](n2ccc(N)nc2=O)[C@H](O)[C@@H]1O	-4.56% (inactive)
O=C(O)Cc1cc(I)c(Oc2cc(I)c(O)c(I)c2)c(I)c1	-3.72% (inactive)
C1N2CN3CN1CN(C2)C3	6.67% (inactive)
CO[C@H]1C=C[C@@]23c4cc5c(cc4CN(C[C@@H]2O)[C@H]3C1)OCO5	13.8% (inactive)
CN[C@H](CC(C)C)C(=O)N[C@H]1C(=O)N[C@@H](CC(N)=O)C(=O)N[C@H]2C(=O)N[C@H]3C(=O)N[C@H](C(=O)N[C@H](C(=O)O)c4cc(O)cc(O)c4-c4cc3ccc4O)[C@H](O)c3ccc(c(Cl)c3)Oc3cc2cc(c3O[C@@H]2O[C@H](CO)[C@@H](O)[C@H](O)[C@H]2O[C@H]2C[C@](C)(N)[C@H](O)[C@H](C)O2)Oc2ccc(cc2Cl)[C@H]1O	3.51% (inactive)
CC(=O)O[C@H]1C[C@@]2(C)[C@@H](C[C@@H](O)[C@H]3[C@@]4(C)CC[C@@H](O)[C@@H](C)[C@@H]4CC[C@@]32C)/C1=C(\CCC=C(C)C)C(=O)O	4.42% (inactive)
